Measured TGI, listed per entry.
# Tested on: OVCAR-4 ovarian
# Protocol text: NCI tumour cell line growth inhibition, 48 h

System OVCAR-4 ovarian. Read-out TGI. Item `CC(=O)Nc1nnc(S(=O)(=O)NC(=S)Nc2ccc(Cl)cc2)s1` . Report value.
> 100 µM

System OVCAR-4 ovarian. Read-out TGI. Item `CC(=O)n1c(-c2ccc(Cl)c(Cl)c2)cn(-c2ccc(Cl)cc2)c1=O` . Report value.
57.7 µM

System OVCAR-4 ovarian. Read-out TGI. Item `NC(=S)N/N=C/c1ccc(OC(=O)COc2ccccc2Cl)cn1` . Report value.
> 100 µM

System OVCAR-4 ovarian. Read-out TGI. Item `Clc1ccc(/C=C/c2nc(Cl)c(-c3ccc(Cl)cc3)c(Cl)n2)cc1` . Report value.
> 100 µM

System OVCAR-4 ovarian. Read-out TGI. Item `CCOC(=O)c1cn(CC)c2cc3c(cc2c1=O)SCS3` . Report value.
> 100 µM

System OVCAR-4 ovarian. Read-out TGI. Item `O=c1[nH]nc(-c2ccccc2)c2c(-c3ccccc3)onc12` . Report value.
> 100 µM

Query compound follows.
System OVCAR-4 ovarian. Read-out TGI. Item `COc1ccc(OC)c(/C=N/N=C2\C(=O)Nc3c(Cl)cc(Cl)cc32)c1` . Report value.
> 100 µM

----------
# System: UACC-62 melanoma
# Protocol text: NCI tumour cell line growth inhibition, 48 h
Reported property: TGI

Tell me TGI reported for CN(C)c1ncnc2c1ccn2C1OC(CO)C(O)C1O (stereo unspecified)
> 100 µM

Tell me TGI reported for C#CC(O)Cc1ccc(OC)c2occc12 (stereo unspecified)
> 100 µM

Tell me TGI reported for `COC(=O)C1=NN2c3ccccc3CN([C@@H](C)c3ccccc3)C(=O)[C@H]2[C@@H]1C`
> 100 µM

Continuing:
Tell me TGI reported for `O=C(CN1C(=O)S/C(=C\C(Cl)=C\c2ccccc2)C1=O)NCCCn1ccnc1`
3.73 µM

Tell me TGI reported for `O=C(O)CN=c1c2ccccc2n(O)c2ccccc12`
> 100 µM

Tell me TGI reported for CCOC(=O)/C=C1\Oc2ccccc2C1(C)O (stereo unspecified)
> 100 µM

----------
# Test system: HS 578T breast
# Protocol text: NCI tumour cell line growth inhibition, 48 h
Reported property: TGI

Tell me TGI reported for `COc1ccccc1Cn1[nH]c(=O)c2cc([N+](=O)[O-])ccc21`
> 100 µM

Tell me TGI reported for `Cc1ccc(S(=O)(=O)Nc2cc(Sc3ccccc3)c(O)c3ccccc23)cc1`
10.8 µM

Tell me TGI reported for `COC(=O)CCC1(O)C=CC(=O)C=C1`
> 100 µM

Tell me TGI reported for `O=C1C(NS(=O)(=O)c2ccccc2)=C(N(Cc2ccccc2)Cc2ccccc2)C(=O)c2ccccc21`
> 100 µM

Tell me TGI reported for CC[C@H](C)[C@H]1NC(=O)[C@@H](NC(=O)[C@@H](CC(C)C)N(C)C(=O)C2CCCN2C(=O)[C@H](C)O)[C@@H](C)OC(=O)[C@H](Cc2ccccc2)N(C)C(=O)[C@@H]2CCCN2C(=O)[C@H](CC(C)C)NC(=O)[C@@H](C)C(=O)[C@H](C(C)C)OC(=O)C[C@@H]1O (some centres not stated)
0.0114 µM

Tell me TGI reported for `CCc1n[nH]c(=S)n1/N=C\c1ccc(-c2ccccc2[N+](=O)[O-])o1`
> 100 µM

Tell me TGI reported for `O=C(CN1C(=O)S/C(=C\C(Cl)=C\c2ccccc2)C1=O)NCCCn1ccnc1`
7.35 µM
